subject-of-test: Neurokinin NK1 (h) (Homo sapiens, UniProt P25103)
Construct: (endogenous); endogenous in cells; host or cells: U-373MG cells
Sequence (P25103 whole entry): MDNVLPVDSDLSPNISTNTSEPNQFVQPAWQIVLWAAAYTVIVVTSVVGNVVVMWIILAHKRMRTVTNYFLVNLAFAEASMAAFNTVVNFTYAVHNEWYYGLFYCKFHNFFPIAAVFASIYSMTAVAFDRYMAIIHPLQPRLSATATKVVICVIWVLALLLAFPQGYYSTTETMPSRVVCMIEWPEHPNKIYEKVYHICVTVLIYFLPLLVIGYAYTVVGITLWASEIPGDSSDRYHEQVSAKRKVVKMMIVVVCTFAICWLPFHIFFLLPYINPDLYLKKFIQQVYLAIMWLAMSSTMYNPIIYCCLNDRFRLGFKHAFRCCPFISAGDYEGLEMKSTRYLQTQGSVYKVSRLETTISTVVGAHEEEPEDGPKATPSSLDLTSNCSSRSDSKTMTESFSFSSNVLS
method-summary: Binding NK1 (h) (ag)
assay-context: read-out: % Inhibition of Control Specific Binding @ 10 μM
readout: inhibition at 10 µM (%)
Please respond with the number in % and leave the unit unwritten.

q: Which inhibition at 10 µM value is on record for CC1(C)C(=O)N(c2ccc(C#N)c(C(F)(F)F)c2)C(=S)N1c1ccc(C(N)=O)c(F)c1 [(MII)] ?
a: 9

q: Queued: CNC(=O)c1ccc(N2C(=O)N(c3ccc(C#N)c(C(F)(F)F)c3)C(=O)C2(C)C)cc1F [(MIV)]
a: -7

q: Queued: CC1(C)C(=O)N(c2ccc(C#N)c(C(F)(F)F)c2)C(=O)N1c1ccc(C(N)=O)c(F)c1 [(MIII)]
a: -9

q: Queued: CC1(C)C(=O)N(c2ccc(C#N)c(C(F)(F)F)c2)C(=S)N1c1ccc(C(=O)O)c(F)c1 [(MI)]
a: -7

###

I'd appreciate it if you could supply inhibition at 10 µM values for the items below.
subject-of-test: PDE1B (h) (Homo sapiens, UniProt Q01064)
Construct: host or cells: Sf9 cells
Sequence (Q01064 whole entry): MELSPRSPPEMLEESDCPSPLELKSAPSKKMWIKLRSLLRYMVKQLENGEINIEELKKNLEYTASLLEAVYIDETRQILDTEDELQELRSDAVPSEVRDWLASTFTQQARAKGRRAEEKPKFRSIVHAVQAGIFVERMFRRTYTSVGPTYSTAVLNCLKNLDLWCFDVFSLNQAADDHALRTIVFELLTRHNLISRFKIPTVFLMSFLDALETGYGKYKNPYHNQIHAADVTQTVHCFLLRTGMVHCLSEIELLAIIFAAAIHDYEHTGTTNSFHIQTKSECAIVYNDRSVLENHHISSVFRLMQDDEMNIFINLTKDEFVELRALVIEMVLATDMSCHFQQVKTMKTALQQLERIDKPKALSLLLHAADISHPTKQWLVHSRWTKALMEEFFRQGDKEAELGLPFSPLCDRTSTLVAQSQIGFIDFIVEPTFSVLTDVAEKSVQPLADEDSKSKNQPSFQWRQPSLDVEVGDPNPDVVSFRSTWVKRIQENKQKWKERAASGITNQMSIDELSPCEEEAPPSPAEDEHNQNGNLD
method-summary: Enzyme assay PDE1B (h)
Type: biochemical
assay-context: read-out: % Inhibition of Control Values @ 10 μM
Please respond with the number in % and leave the unit unwritten.

q: Which inhibition at 10 µM value is on record for "CC1(C)C(=O)N(c2ccc(C#N)c(C(F)(F)F)c2)C(=O)N1c1ccc(C(N)=O)c(F)c1" ?
a: -8

q: Queued: "CNC(=O)c1ccc(N2C(=O)N(c3ccc(C#N)c(C(F)(F)F)c3)C(=O)C2(C)C)cc1F"
a: -2

q: Queued: "CC1(C)C(=O)N(c2ccc(C#N)c(C(F)(F)F)c2)C(=S)N1c1ccc(C(=O)O)c(F)c1"
a: 0

q: Queued: "CC1(C)C(=O)N(c2ccc(C#N)c(C(F)(F)F)c2)C(=S)N1c1ccc(C(N)=O)c(F)c1"
a: -11

###

subject-of-test: Glucocorticoid GR (h) (Homo sapiens, UniProt P04150)
Construct: IM-9 cells (cytosol); endogenous in cells; host or cells: IM-9 cells (cytosol)
Sequence (P04150 1-777): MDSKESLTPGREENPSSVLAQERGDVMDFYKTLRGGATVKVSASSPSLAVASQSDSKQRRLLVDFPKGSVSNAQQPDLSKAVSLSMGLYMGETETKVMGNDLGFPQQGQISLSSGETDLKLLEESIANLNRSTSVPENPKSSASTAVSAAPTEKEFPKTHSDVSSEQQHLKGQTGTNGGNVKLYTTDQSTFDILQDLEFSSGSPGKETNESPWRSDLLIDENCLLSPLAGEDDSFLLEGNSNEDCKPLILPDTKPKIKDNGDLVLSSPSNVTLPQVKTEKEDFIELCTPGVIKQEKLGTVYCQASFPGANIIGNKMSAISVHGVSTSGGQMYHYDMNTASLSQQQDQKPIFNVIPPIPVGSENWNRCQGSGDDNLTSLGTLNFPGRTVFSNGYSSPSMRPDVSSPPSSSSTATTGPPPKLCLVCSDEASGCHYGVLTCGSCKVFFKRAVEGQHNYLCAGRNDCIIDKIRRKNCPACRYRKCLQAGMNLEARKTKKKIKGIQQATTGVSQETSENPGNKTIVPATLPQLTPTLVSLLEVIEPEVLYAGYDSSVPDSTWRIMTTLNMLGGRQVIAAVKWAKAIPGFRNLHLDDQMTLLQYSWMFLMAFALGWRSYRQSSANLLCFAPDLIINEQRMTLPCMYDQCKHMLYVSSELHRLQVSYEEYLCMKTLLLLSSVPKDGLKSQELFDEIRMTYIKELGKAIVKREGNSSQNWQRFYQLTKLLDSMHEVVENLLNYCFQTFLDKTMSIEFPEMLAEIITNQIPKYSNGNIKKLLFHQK
method-summary: Binding GR (h) (ag)
assay-context: read-out: % Inhibition of Control Specific Binding @ 10 μM
I'd appreciate it if you could supply inhibition at 10 µM values for the items below.
Lab note: write values as number then unit, every time.

q: Which inhibition at 10 µM value is on record for "CC1(C)C(=O)N(c2ccc(C#N)c(C(F)(F)F)c2)C(=S)N1c1ccc(C(N)=O)c(F)c1" ?
a: 30%

q: Queued: "CC1(C)C(=O)N(c2ccc(C#N)c(C(F)(F)F)c2)C(=S)N1c1ccc(C(=O)O)c(F)c1"
a: 5%

q: Queued: "CC1(C)C(=O)N(c2ccc(C#N)c(C(F)(F)F)c2)C(=O)N1c1ccc(C(N)=O)c(F)c1"
a: 0%

q: Queued: "CNC(=O)c1ccc(N2C(=O)N(c3ccc(C#N)c(C(F)(F)F)c3)C(=O)C2(C)C)cc1F"
a: 4%

All values here come from patent US8524755B2.
